I'd appreciate it if you could supply Emax values for the items below.
STUDY_TARGET: Mu-type opioid receptor (Mus musculus) (UniProt P42866)
Sequence (P42866 whole entry): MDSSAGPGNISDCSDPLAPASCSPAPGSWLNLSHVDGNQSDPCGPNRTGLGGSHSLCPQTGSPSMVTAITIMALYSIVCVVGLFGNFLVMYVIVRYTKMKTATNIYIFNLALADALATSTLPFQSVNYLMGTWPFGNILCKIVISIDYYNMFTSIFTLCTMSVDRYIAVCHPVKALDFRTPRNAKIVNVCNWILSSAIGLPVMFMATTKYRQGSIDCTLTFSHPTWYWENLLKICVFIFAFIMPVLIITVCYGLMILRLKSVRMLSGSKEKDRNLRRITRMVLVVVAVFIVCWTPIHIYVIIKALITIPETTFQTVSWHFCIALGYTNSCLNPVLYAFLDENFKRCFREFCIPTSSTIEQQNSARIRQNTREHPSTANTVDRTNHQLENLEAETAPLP
TEST_NAME: Agonist activity at recombinant mouse mu opioid receptor expressed in CHO cell membrane assessed as [35]-GTPgammaS binding incubated for […] by scintillation counting method relative to DAMGO
Give bare numbers, in %.

Go through the list and state Emax for each entry.
1. Cl.O=C(N[C@@H]1CC[C@@]2(O)[C@H]3Cc4ccc(O)c5c4[C@@]2(CCN3CC2CC2)[C@H]1O5)c1ccc2ccsc2c1
2. Cl.O=C(N[C@@H]1CC[C@@]2(O)[C@H]3Cc4ccc(O)c5c4[C@@]2(CCN3CC2CC2)[C@H]1O5)c1cccc2sccc12
3. Cl.O=C(N[C@@H]1CC[C@@]2(O)[C@H]3Cc4ccc(O)c5c4[C@@]2(CCN3CC2CC2)[C@H]1O5)c1cccc2ccoc12
4. Cl.O=C(N[C@H]1CC[C@@]2(O)[C@H]3Cc4ccc(O)c5c4[C@@]2(CCN3CC2CC2)[C@H]1O5)c1ccc2occc2c1
5. Cl.O=C(N[C@H]1CC[C@@]2(O)[C@H]3Cc4ccc(O)c5c4[C@@]2(CCN3CC2CC2)[C@H]1O5)c1cccc2sccc12

**A:**
1. 58.7
2. 23.1
3. 27.3
4. 17.7
5. 16.1

Go through the list and state Emax for each entry.
1. Cl.O=C(N[C@@H]1CC[C@@]2(O)[C@H]3Cc4ccc(O)c5c4[C@@]2(CCN3CC2CC2)[C@H]1O5)c1cc2ccccc2o1
2. Cl.O=C(N[C@H]1CC[C@@]2(O)[C@H]3Cc4ccc(O)c5c4[C@@]2(CCN3CC2CC2)[C@H]1O5)c1ccc2sccc2c1

**A:**
1: 64.5; 2: 18.9
